This collection of values is drawn from paper PMC8772704.

Test: Long-term storage stability of antibiotics in combination with fosfomycin spiked in plasma/CAMHB (−30 °C, −80 °C)
Type: physicochemical
Settings: CAMHB, combination with fosfomycin, 4 weeks at -30 °C; HQC (nominal as E15)
Reported Endpoint: Mean accuracy (%), Table S16

| Molecule | Units Of Measure | Observed Value |
| --- | --- | --- |
| CO/N=C(\C(=O)N[C@@H]1C(=O)N2C(C(=O)[O-])=C(C[N+]3(C)CCCC3)CS[C@H]12)c1csc(N)n1 [Cefepime, cefepime] | % | 93.2 |
| CC(C)(O/N=C(\C(=O)N[C@@H]1C(=O)N2C(C(=O)[O-])=C(C[n+]3ccccc3)CS[C@H]12)c1csc(N)n1)C(=O)O [Ceftazidime, ceftazidime] | % | 100.5 |
| C[C@@H]1O[C@@H]1P(=O)(O)O [Fosfomycin, fosfomycin] | % | 94.6 |
| C[C@]1(Cn2ccnn2)[C@H](C(=O)O)N2C(=O)C[C@H]2S1(=O)=O [Tazobactam, tazobactam] | % | 91.0 |
| NC(=O)[C@@H]1CC[C@@H]2CN1C(=O)N2OS(=O)(=O)O [Avibactam, avibactam] | % | 80.6 |
